Cited source: patent US20120202818A1

system: TrkA Kinase (Homo sapiens, UniProt P04629)
Construct: purchased Millipore (KinaseProfiler service) and/or Reaction Biology Corp. (Kinase HotSpot service)
Sequence (P04629 33-796): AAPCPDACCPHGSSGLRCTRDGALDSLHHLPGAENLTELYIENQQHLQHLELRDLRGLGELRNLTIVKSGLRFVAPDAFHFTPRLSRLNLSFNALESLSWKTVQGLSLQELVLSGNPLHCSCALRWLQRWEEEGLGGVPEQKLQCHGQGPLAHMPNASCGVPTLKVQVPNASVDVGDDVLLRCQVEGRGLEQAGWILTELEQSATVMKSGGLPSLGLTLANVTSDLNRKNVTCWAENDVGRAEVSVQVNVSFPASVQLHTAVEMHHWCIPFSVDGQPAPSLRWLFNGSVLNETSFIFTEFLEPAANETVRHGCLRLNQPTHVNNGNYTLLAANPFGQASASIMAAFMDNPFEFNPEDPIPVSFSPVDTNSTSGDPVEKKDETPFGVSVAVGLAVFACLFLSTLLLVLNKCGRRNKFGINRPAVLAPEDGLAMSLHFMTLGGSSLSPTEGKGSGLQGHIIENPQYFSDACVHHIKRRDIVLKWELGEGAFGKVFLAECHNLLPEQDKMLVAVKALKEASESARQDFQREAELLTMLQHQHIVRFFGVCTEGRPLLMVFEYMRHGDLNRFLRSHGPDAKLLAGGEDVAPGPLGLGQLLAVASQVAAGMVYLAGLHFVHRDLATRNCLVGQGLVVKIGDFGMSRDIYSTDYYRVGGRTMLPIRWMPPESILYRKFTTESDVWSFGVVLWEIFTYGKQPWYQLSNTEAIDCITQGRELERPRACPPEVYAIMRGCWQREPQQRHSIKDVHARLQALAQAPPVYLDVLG
methodNotes: TrkA kinase assay (KinaseProfiler / Kinase HotSpot)
Type: biochemical
testParameters: compound at 1 μM
parameter: inhibition at 1 µM

These recorded examples may help you get a feel for the data.
smilesInput	inhibition at 1 µM
CCc1nc(Nc2ccc(NC(=O)NC(C)C)cc2)nc(Nc2cc(C)n(C(=O)NC(C)C)n2)n1	< 50%
Cc1cnc(Nc2nc(Sc3ccc(NC(=O)Nc4ccccc4)cc3)nc(N3CCN(C)CC3)n2)s1	50 to 90%
CCc1nc(Nc2ccc(NC(=O)NCc3ccccc3)cc2)nc(Nc2cc(C)[nH]n2)n1	< 50%

Here is another molecule to look at.
For the molecule shown here, CCNC(=O)Nc1ccc(Nc2nc(CC)nc(Nc3cc(C)n(C(=O)NCC)n3)n2)cc1 , give the reported inhibition at 1 µM.
< 50%
